All values here come from ChEMBL document CHEMBL1138881.

System: Human immunodeficiency virus 1
measurement.description: Antiviral activity against HIV1 3B in MT4 cells
Format: functional, organism-based
condition.info: Human immunodeficiency virus 1, 3B
Answer each item with its documented pEC50.
Scale: negative log10 of molar concentration, which is what pEC50 denotes.

Param item = COC(=O)[C@H](Cc1ccc(OC(C)(C)C)cc1)NP(=O)(OC[C@H]1C=C[C@@H](n2cnc3c(N)ncnc32)C1)Oc1ccccc1 (stereo partly specified) ; retrieve measured pEC50. 6.96

Param item = COC(=O)C[C@@H](NP(=O)(OC[C@H]1C=C[C@@H](n2cnc3c(N)ncnc32)C1)Oc1ccccc1)C(=O)OC (stereo partly specified) ; retrieve measured pEC50. 5.68

Param item = COC(=O)[C@H](CCCCN)NP(=O)(OC[C@H]1C=C[C@@H](n2cnc3c(N)ncnc32)C1)Oc1ccccc1.O=C(O)C(F)(F)F (stereo partly specified) ; retrieve measured pEC50. 4.82

Param item = COC(=O)[C@@H](CCSC)NP(=O)(OC[C@H]1C=C[C@@H](n2cnc3c(N)ncnc32)C1)Oc1ccccc1 (stereo partly specified) ; retrieve measured pEC50. 5.60

Param item = COC(=O)[C@H](C)NP(=O)(OC[C@H]1CC[C@@H](n2cnc3c(N)ncnc32)C1)Oc1ccccc1 (stereo partly specified) ; retrieve measured pEC50. 5.74

Param item = COC(=O)c1ccc(OP(=O)(N[C@@H](C)C(=O)OC)OC[C@H]2C=C[C@@H](n3cnc4c(N)ncnc43)C2)cc1 (stereo partly specified) ; retrieve measured pEC50. 6.92

Param item = `Nc1ncnc2c1ncn2[C@H]1CC[C@@H](CO)C1` ; retrieve measured pEC50. 4.30

Param item = COC(=O)[C@H](Cc1ccc(O)cc1)NP(=O)(OC[C@H]1C=C[C@@H](n2cnc3c(N)ncnc32)C1)Oc1ccccc1 (stereo partly specified) ; retrieve measured pEC50. 6.24

Param item = COC(=O)[C@@H](Cc1c[nH]c2ccccc12)NP(=O)(OC[C@H]1C=C[C@@H](n2cnc3c(N)ncnc32)C1)Oc1ccccc1 (stereo partly specified) ; retrieve measured pEC50. 4.88

Param item = COC(=O)[C@H](Cc1ccccc1)NP(=O)(OC[C@H]1C=C[C@@H](n2cnc3c(N)ncnc32)C1)Oc1ccccc1 (stereo partly specified) ; retrieve measured pEC50. 7.00

Param item = COC(=O)[C@H](CCSC)NP(=O)(OC[C@H]1C=C[C@@H](n2cnc3c(N)ncnc32)C1)Oc1ccccc1 (stereo partly specified) ; retrieve measured pEC50. 6.80

Param item = COC(=O)[C@H](C)NP(=O)(OC[C@H]1C=C[C@@H](n2cnc3c(N)ncnc32)C1)Oc1ccc(Cl)cc1 (stereo partly specified) ; retrieve measured pEC50. 8.05

Param item = COC(=O)[C@H](C)NP(=O)(OC[C@H]1C=C[C@@H](N2C=NC3C(N)=NC=NC32)C1)Oc1ccc(C(F)(F)F)cc1 (stereo partly specified) ; retrieve measured pEC50. 7.46

Param item = COC(=O)[C@H](CC(C)C)NP(=O)(OC[C@H]1C=C[C@@H](n2cnc3c(N)ncnc32)C1)Oc1ccccc1 (stereo partly specified) ; retrieve measured pEC50. 6.72

###

Tested on: Hepatitis B virus
measurement.description: Antiviral activity against HBV in HepG2 2.2.15 cells
Type: functional, organism-based
Answer each item with its documented pEC50.
Scale: negative log10 of molar concentration, which is what pEC50 denotes.

Param item = COC(=O)C[C@@H](NP(=O)(OC[C@H]1C=C[C@@H](n2cnc3c(N)ncnc32)C1)Oc1ccccc1)C(=O)OC (stereo partly drawn) ; retrieve measured pEC50. 7.70

Param item = COC(=O)[C@H](NP(=O)(OC[C@H]1C=C[C@@H](n2cnc3c(N)ncnc32)C1)Oc1ccccc1)C(C)C (stereo partly drawn) ; retrieve measured pEC50. 6.22

Param item = COC(=O)[C@H](CC(C)C)NP(=O)(OC[C@H]1C=C[C@@H](n2cnc3c(N)ncnc32)C1)Oc1ccccc1 (stereo partly drawn) ; retrieve measured pEC50. 8.00

Param item = `Nc1ncnc2c1ncn2[C@H]1C=C[C@@H](CO)C1` ; retrieve measured pEC50. 4.28

Param item = COC(=O)[C@@H](CC(C)C)NP(=O)(OC[C@H]1C=C[C@@H](n2cnc3c(N)ncnc32)C1)Oc1ccccc1 (stereo partly drawn) ; retrieve measured pEC50. 6.89

Param item = COC(=O)[C@H](CCCCN)NP(=O)(OC[C@H]1C=C[C@@H](n2cnc3c(N)ncnc32)C1)Oc1ccccc1.O=C(O)C(F)(F)F (stereo partly drawn) ; retrieve measured pEC50. 5.70

Param item = COC(=O)[C@H](C)NP(=O)(OC[C@H]1C=C[C@@H](n2cnc3c(N)ncnc32)C1)Oc1ccccc1 (stereo partly drawn) ; retrieve measured pEC50. 7.77

###

Answer each item with its documented pEC50.
Test system: Hepatitis B virus
measurement.description: Antiviral activity against HBV in HepG2 2.2.15 cells
Format: functional, organism-based
Scale: negative log10 of molar concentration, which is what pEC50 denotes.

Param item = COC(=O)c1ccc(OP(=O)(N[C@@H](C)C(=O)OC)OC[C@H]2C=C[C@@H](n3cnc4c(N)ncnc43)C2)cc1 (stereo partly specified) ; retrieve measured pEC50. 8.40

Param item = C[C@H](NP(=O)(OC[C@H]1C=C[C@@H](n2cnc3c(N)ncnc32)C1)Oc1ccccc1)C(=O)OCC(C)(C)C (stereo partly specified) ; retrieve measured pEC50. 8.52

Param item = CCOC(=O)[C@H](C)NP(=O)(OC[C@H]1C=C[C@@H](n2cnc3c(N)ncnc32)C1)Oc1ccccc1 (stereo partly specified) ; retrieve measured pEC50. 7.70

Param item = COC(=O)[C@H](CCSC)NP(=O)(OC[C@H]1C=C[C@@H](n2cnc3c(N)ncnc32)C1)Oc1ccccc1 (stereo partly specified) ; retrieve measured pEC50. 7.52

Param item = CCOC(=O)c1ccccc1OP(=O)(N[C@@H](C)C(=O)OC)OC[C@H]1C=C[C@@H](n2cnc3c(N)ncnc32)C1 (stereo partly specified) ; retrieve measured pEC50. 8.40

Param item = C[C@H](NP(=O)(OC[C@H]1C=C[C@@H](n2cnc3c(N)ncnc32)C1)Oc1ccccc1)C(=O)OC(C)(C)C (stereo partly specified) ; retrieve measured pEC50. 6.60

Param item = CCOC(=O)c1cccc(OP(=O)(N[C@@H](C)C(=O)OC)OC[C@H]2C=C[C@@H](n3cnc4c(N)ncnc43)C2)c1 (stereo partly specified) ; retrieve measured pEC50. 8.40

Param item = COC(=O)[C@H](C)NP(=O)(OC[C@H]1CC[C@@H](n2cnc3c(N)ncnc32)C1)Oc1ccccc1 (stereo partly specified) ; retrieve measured pEC50. 6.22

Param item = COC(=O)[C@H](C)NP(=O)(OC[C@H]1C=C[C@@H](n2cnc3c(N)ncnc32)C1)Oc1ccc(Cl)cc1 (stereo partly specified) ; retrieve measured pEC50. 8.52

Param item = COC(=O)[C@@H](NP(=O)(OC[C@H]1C=C[C@@H](n2cnc3c(N)ncnc32)C1)Oc1ccccc1)C(C)C (stereo partly specified) ; retrieve measured pEC50. 7.70

Param item = COC(=O)[C@H](C)NP(=O)(OC[C@H]1C=C[C@@H](n2cnc3c(N)ncnc32)C1)Oc1ccc([N+](=O)[O-])cc1 (stereo partly specified) ; retrieve measured pEC50. 8.15

Param item = COC(=O)[C@H](Cc1ccc(O)cc1)NP(=O)(OC[C@H]1C=C[C@@H](n2cnc3c(N)ncnc32)C1)Oc1ccccc1 (stereo partly specified) ; retrieve measured pEC50. 7.30

Param item = `Nc1ncnc2c1ncn2[C@@H]1C=C[C@H](CO)C1` ; retrieve measured pEC50. 6.01

Param item = COC(=O)[C@@H](C)NP(=O)(OC[C@H]1C=C[C@@H](n2cnc3c(N)ncnc32)C1)Oc1ccccc1 (stereo partly specified) ; retrieve measured pEC50. 7.58

Param item = COC(=O)[C@H](Cc1ccccc1)NP(=O)(OC[C@H]1C=C[C@@H](n2cnc3c(N)ncnc32)C1)Oc1ccccc1 (stereo partly specified) ; retrieve measured pEC50. 8.35

###

Tested on: Human immunodeficiency virus 1
measurement.description: Antiviral activity against HIV1 3B in MT4 cells
Format: functional, organism-based
condition.info: Human immunodeficiency virus 1, 3B
metric: EC50 (nM)
// units = nM; emit number, no label

Param item = COC(=O)[C@H]1CCCN1P(=O)(OC[C@H]1C=C[C@@H](n2cnc3c(N)ncnc32)C1)Oc1ccccc1 (some centres not stated) ; retrieve measured EC50. 117000

Param item = COC(=O)[C@@H](C)NP(=O)(OC[C@H]1C=C[C@@H](n2cnc3c(N)ncnc32)C1)Oc1ccccc1 (some centres not stated) ; retrieve measured EC50. 2050

Param item = C[C@H](NP(=O)(OC[C@H]1C=C[C@@H](n2cnc3c(N)ncnc32)C1)Oc1ccccc1)C(=O)OCC(C)(C)C (some centres not stated) ; retrieve measured EC50. 43

Param item = COC(=O)[C@@H](Cc1ccccc1)NP(=O)(OC[C@H]1C=C[C@@H](n2cnc3c(N)ncnc32)C1)Oc1ccccc1 (some centres not stated) ; retrieve measured EC50. 2800

Param item = C[C@H](NP(=O)(OC[C@H]1C=C[C@@H](n2cnc3c(N)ncnc32)C1)Oc1ccccc1)C(=O)OCc1ccccc1 (some centres not stated) ; retrieve measured EC50. 9

Param item = COC(=O)C[C@H](NP(=O)(OC[C@H]1C=C[C@@H](n2cnc3c(N)ncnc32)C1)Oc1ccccc1)C(=O)OC (some centres not stated) ; retrieve measured EC50. 320

Param item = COC(=O)[C@H](C)NP(=O)(OC[C@H]1C=C[C@@H](n2cnc3c(N)ncnc32)C1)Oc1ccc(Cl)c(Cl)c1 (some centres not stated) ; retrieve measured EC50. 77

Param item = CCOC(=O)c1cccc(OP(=O)(N[C@@H](C)C(=O)OC)OC[C@H]2C=C[C@@H](n3cnc4c(N)ncnc43)C2)c1 (some centres not stated) ; retrieve measured EC50. 53

Param item = COC(=O)[C@H](NP(=O)(OC[C@H]1C=C[C@@H](n2cnc3c(N)ncnc32)C1)Oc1ccccc1)C(C)C (some centres not stated) ; retrieve measured EC50. 2300

Param item = CC[C@H](C)[C@H](NP(=O)(OC[C@H]1C=C[C@@H](n2cnc3c(N)ncnc32)C1)Oc1ccccc1)C(=O)OC (some centres not stated) ; retrieve measured EC50. 960

Param item = COC(=O)[C@H](C)NP(=O)(OC[C@H]1C=C[C@@H](n2cnc3c(N)ncnc32)C1)Oc1ccccc1 (some centres not stated) ; retrieve measured EC50. 30

Param item = COC(=O)[C@H](C)NP(=O)(OC[C@H]1C=C[C@@H](n2cnc3c(N)ncnc32)C1)Oc1ccc([N+](=O)[O-])cc1 (some centres not stated) ; retrieve measured EC50. 120

Param item = COC(=O)[C@H](C)NP(=O)(OC[C@@H]1C=C[C@H](n2cnc3c(N)ncnc32)C1)Oc1ccccc1 (some centres not stated) ; retrieve measured EC50. 300

Param item = COC(=O)[C@@H](NP(=O)(OC[C@H]1C=C[C@@H](n2cnc3c(N)ncnc32)C1)Oc1ccccc1)C(C)C (some centres not stated) ; retrieve measured EC50. 640

Param item = `Nc1ncnc2c1ncn2[C@H]1C=C[C@@H](CO)C1` ; retrieve measured EC50. 15000

Param item = COC(=O)CNP(=O)(OC[C@H]1C=C[C@@H](n2cnc3c(N)ncnc32)C1)Oc1ccccc1 (some centres not stated) ; retrieve measured EC50. 4350

Param item = CCOC(=O)[C@H](C)NP(=O)(OC[C@H]1C=C[C@@H](n2cnc3c(N)ncnc32)C1)Oc1ccccc1 (some centres not stated) ; retrieve measured EC50. 17

Param item = `Nc1ncnc2c1ncn2[C@@H]1C=C[C@H](CO)C1` ; retrieve measured EC50. 80000

Param item = COC(=O)[C@@H]1CCCN1P(=O)(OC[C@H]1C=C[C@@H](n2cnc3c(N)ncnc32)C1)Oc1ccccc1 (some centres not stated) ; retrieve measured EC50. 5280

Param item = CC(C)OC(=O)[C@H](C)NP(=O)(OC[C@H]1C=C[C@@H](n2cnc3c(N)ncnc32)C1)Oc1ccccc1 (some centres not stated) ; retrieve measured EC50. 150
